# test_summary: Cmax in monkey at 25 mg/kg, po
# Format: ADME, organism-based, Macaca mulatta
# Design: dose 25 mg/kg, route oral
# condition_info: rhesus monkey, in vivo

smiles_entry | Cmax, nM
Cn1cncc1[C@@](C)(O)C1=Cc2cccnc2[C@@H](N2CCN(C(=O)OC(C)(C)C)CC2)c2ccc(Cl)cc21 | 700

====

# test_summary: AUC in monkey at 25 mg/kg, po
# Format: ADME, organism-based, Macaca mulatta
# Design: dose 25 mg/kg, route oral
# condition_info: rhesus monkey, plasma
readout_name: AUC (µM·h)

smiles_entry | readout_name | result_number
Cn1cncc1[C@@](C)(O)C1=Cc2cccnc2[C@@H](N2CCN(C(=O)OC(C)(C)C)CC2)c2ccc(Cl)cc21 | AUC | 3.2

====

# test_summary: AUC (0 to 6 hrs) in rat at 10 mg/kg
# Type: ADME, organism-based
# Set-up: time < 6 hr, dose 10 mg/kg
# condition_info: plasma

smiles_entry | result_unit | AUC(0-t) at 6 h
Cn1cncc1[C@](C)(O)C1=Cc2cccnc2[C@@H](N2CCN(C(=O)OC(C)(C)C)CC2)c2ccc(Cl)cc21 | µM·h | 3.1

====

# assay_target: Protein farnesyltransferase (Homo sapiens, UniProt P49354+P49356)
# test_summary: Inhibition of FTase (unknown origin) assessed as transfer of [H3]farnesyl from [H3]farnesyl pyrophosphate to trichloroacetic acid-precipitable HaRas-CVLS
pIC50: −log10 of the molar value.

molecule | comparison_sign | pIC50
Cn1cncc1[C@](C)(O)C1=Cc2cccnc2[C@@H](N2CCN(C(=O)NC3CCCCC3)CC2)c2ccc(Cl)cc21 | = | 9.40
Cn1cncc1C(=O)C1=Cc2cccnc2[C@@H](N2CCN(C(=O)OC(C)(C)C)CC2)c2ccc(Cl)cc21 | < | 7.74
Cn1cncc1C(C)(O)[C@]12C[C@H]1c1cccnc1[C@@H](N1CCN(C(=O)OC(C)(C)C)CC1)c1ccc(Cl)cc12 (stereo not given in full) | < | 7.74
Cn1cncc1[C@](C)(O)C1=Cc2cccnc2[C@@H](N2CCN(C(=O)OC3CCCC3)CC2)c2ccc(Cl)cc21 | = | 9.22
Cn1cncc1[C@@](C)(O)C1=Cc2cccnc2[C@@H](N2CCN(C(=O)NC3CCCCC3)CC2)c2ccc(Cl)cc21 | = | 10.00
Cn1cncc1[C@@](C)(O)C1=Cc2cccnc2[C@@H](N2CCN(C(=O)OC(C)(C)C)CC2)c2ccc(Cl)cc21 | = | 8.85
Cn1cncc1[C@](C)(O)C1=Cc2cccnc2[C@@H](N2CCN(C(N)=O)CC2)c2ccc(Cl)cc21 | < | 7.70
Cn1cncc1C(=O)[C@@]12C[C@@H]1c1cccnc1[C@@H](N1CCN(C(=O)OC(C)(C)C)CC1)c1ccc(Cl)cc12 | = | 8.49
CCC(O)(C1=Cc2cccnc2[C@@H](N2CCN(C(=O)OC(C)(C)C)CC2)c2ccc(Cl)cc21)c1cncn1C (mixture of isomers) | = | 8.30
Cn1cncc1C(=O)[C@]12C[C@H]1c1cccnc1[C@@H](N1CCN(C(=O)OC(C)(C)C)CC1)c1ccc(Cl)cc12 | = | 8.49
Cn1cncc1[C@](C)(O)C1=Cc2cccnc2[C@@H](N2CCN(C(=O)NC(C)(C)C)CC2)c2ccc(Cl)cc21 | = | 9.15
CC(C)OC(=O)N1CCN([C@H]2c3ccc(Cl)cc3C([C@@](C)(O)c3cncn3C)=Cc3cccnc32)CC1 | = | 9.22
Cn1cncc1[C@@](C)(O)C1=Cc2cccnc2[C@@H](N2CCN(C(=O)NC(C)(C)C)CC2)c2ccc(Cl)cc21 | = | 9.05
Cn1cncc1[C@@](C)(O)C1=Cc2cccnc2[C@@H](N2CCN(C(=O)Nc3ccc(C#N)cc3)CC2)c2ccc(Cl)cc21 | = | 9.10
Cn1cncc1C(C)(O)[C@@]12C[C@@H]1c1cccnc1[C@@H](N1CCN(C(=O)OC(C)(C)C)CC1)c1ccc(Cl)cc12 (stereo not given in full) | = | 8.72

Attribution: ChEMBL document CHEMBL3112503
